tested on: Mus musculus; test: Analgesic activity in albino mouse assessed as forepaw licking/jumping latency time at 10 mg/kg, ip measured after 90 mins by hot plate test (reference value: 2.72 +/- 0.01 sec); type: functional; conditions: 1.5 h
Would you mind telling me the reported Time of each entry?
All answers are understood in s, so give the number only.

Input line: Param readout= Time; system= Mus musculus; entry= COc1cc(/C=C/C(=O)/C=C(O)/C=C/c2ccc(OC(=O)CN)c(OC)c2)ccc1OC(=O)CN.Cl.Cl ; returns value.
Output line: 3.66

Input line: // same read-out, input: CC(C)Cc1ccc(C(C)C(=O)O)cc1 (configuration not stated) [IBUPROFEN]
Output line: 4.12

Input line: // same read-out, input: COc1cc(/C=C/C(=O)/C=C(O)/C=C/c2ccc(OC(=O)C(C)NC(=O)OCc3ccccc3)c(OC)c2)ccc1OC(=O)C(C)NC(=O)OCc1ccccc1 (configuration not stated)
Output line: 3.22

Input line: // same read-out, input: COc1cc(/C=C/C(=O)/C=C(O)/C=C/c2ccc(OC(=O)CCN)c(OC)c2)ccc1OC(=O)CCN.Cl.Cl
Output line: 4.16

Input line: // same read-out, input: COc1cc(/C=C/C(=O)/C=C(O)/C=C/c2ccc(OC(=O)[C@@H](CCSC)NC(=O)OC(C)(C)C)c(OC)c2)ccc1OC(=O)[C@@H](CCSC)NC(=O)OC(C)(C)C
Output line: 4.82

Input line: // same read-out, input: COc1cc(/C=C/C(=O)/C=C(O)/C=C/c2ccc(OC(=O)[C@@H](N)CCSC)c(OC)c2)ccc1OC(=O)[C@@H](N)CCSC.Cl.Cl
Output line: 4.98

Input line: // same read-out, input: COc1cc(/C=C/C(=O)/C=C(O)/C=C/c2ccc(OC(=O)[C@@H](CCSC)NC(=O)OCc3ccccc3)c(OC)c2)ccc1OC(=O)[C@@H](CCSC)NC(=O)OCc1ccccc1
Output line: 4.88
